Entries below carry reported IC50 on cGMP-inhibited 3',5'-cyclic phosphodiesterase 3A (Homo sapiens, UniProt Q14432).
Sequence (Q14432 whole entry): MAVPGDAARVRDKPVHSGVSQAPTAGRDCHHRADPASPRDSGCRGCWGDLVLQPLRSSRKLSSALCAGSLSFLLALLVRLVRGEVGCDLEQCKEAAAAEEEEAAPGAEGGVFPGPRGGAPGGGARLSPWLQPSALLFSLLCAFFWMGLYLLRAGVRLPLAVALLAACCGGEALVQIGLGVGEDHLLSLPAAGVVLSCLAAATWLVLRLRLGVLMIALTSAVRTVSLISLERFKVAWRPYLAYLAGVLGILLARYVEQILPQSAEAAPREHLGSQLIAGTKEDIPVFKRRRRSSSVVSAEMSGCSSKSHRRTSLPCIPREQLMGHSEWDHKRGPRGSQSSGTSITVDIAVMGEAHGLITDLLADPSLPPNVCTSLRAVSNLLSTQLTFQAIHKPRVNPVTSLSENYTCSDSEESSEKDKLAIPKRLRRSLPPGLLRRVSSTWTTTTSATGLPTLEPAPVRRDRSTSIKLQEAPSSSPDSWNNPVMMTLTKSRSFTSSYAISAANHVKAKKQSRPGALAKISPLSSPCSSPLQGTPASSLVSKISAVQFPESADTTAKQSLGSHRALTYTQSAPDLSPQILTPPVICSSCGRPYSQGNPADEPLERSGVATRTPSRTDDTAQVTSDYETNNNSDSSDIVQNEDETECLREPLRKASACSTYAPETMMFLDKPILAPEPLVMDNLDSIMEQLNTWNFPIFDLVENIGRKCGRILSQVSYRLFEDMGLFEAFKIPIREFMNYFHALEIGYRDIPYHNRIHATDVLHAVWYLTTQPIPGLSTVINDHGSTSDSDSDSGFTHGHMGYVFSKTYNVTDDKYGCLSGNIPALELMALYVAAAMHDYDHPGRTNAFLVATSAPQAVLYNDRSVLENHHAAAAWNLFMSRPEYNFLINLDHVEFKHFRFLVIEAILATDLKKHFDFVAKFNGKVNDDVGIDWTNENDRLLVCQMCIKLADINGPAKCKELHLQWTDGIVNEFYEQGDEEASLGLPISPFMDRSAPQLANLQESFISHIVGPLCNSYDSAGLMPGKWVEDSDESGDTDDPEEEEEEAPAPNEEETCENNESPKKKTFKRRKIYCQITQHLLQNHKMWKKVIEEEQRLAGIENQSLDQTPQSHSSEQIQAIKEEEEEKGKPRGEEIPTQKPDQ

{"compound": "COc1ccc(C2=NN(CCCCOc3ccc(-c4n[nH]c(=O)cc4C)cc3)C(=O)CC2C)c2cc(C(F)(F)F)nn12 (centres undefined)", "assayed system": "cGMP-inhibited 3',5'-cyclic phosphodiesterase 3A (Homo sapiens, UniProt Q14432)", "unit of measure": "nM", "IC50": 40000}
{"compound": "COc1ccc(C2=NN(CCOc3ccc(C4=NNC(=O)CC4C)cc3)C(=O)CC2C)c2cc(C(F)(F)F)nn12 (centres undefined)", "assayed system": "cGMP-inhibited 3',5'-cyclic phosphodiesterase 3A (Homo sapiens, UniProt Q14432)", "unit of measure": "nM", "IC50": 130}
{"compound": "COc1ccc(C2=NN(CCCCOc3ccc(C4=NNC(=O)CC4)c(F)c3F)C(=O)C2(C)C)c2sc(C(F)(F)F)nc12", "assayed system": "cGMP-inhibited 3',5'-cyclic phosphodiesterase 3A (Homo sapiens, UniProt Q14432)", "unit of measure": "nM", "IC50": 6.9}
{"compound": "COc1ccc(C2=NN(CCCCOc3ccc(C4=NNC(=O)CC4)c(F)c3F)C(=O)CC2C)c2cc(C(F)(F)F)nn12 (centres undefined)", "assayed system": "cGMP-inhibited 3',5'-cyclic phosphodiesterase 3A (Homo sapiens, UniProt Q14432)", "unit of measure": "nM", "IC50": 5.1}
